- Tested on: IL-1β production in PMA-differentiated THP-1 cells
- procedure_text: IL-1β production in PMA-differentiated THP-1 cells stimulated with gramicidin (hTHP-1 assay containing 2% fetal bovine serum; Procedures 1-3)
- Type: cell-based, human
- particulars: Homo sapiens, THP-1, hTHP-1 assay containing 2% fetal bovine serum; class symbols; read-out: hTHP-1 IC50 (Average IC50 of compounds in hTHP-1 assay)
pIC50: −log10 of the molar value.
Listed here are compounds together with their documented pIC50.

• CC(C)c1cnc(F)c(C(C)C)c1CC(=O)N=S(N)(=O)c1cnc(C(C)(C)O)s1 (stereo not shown) = 4.52 to 5.30
• COc1cc(C(C)C)c(CC(=O)NS(=O)(=O)c2ncc(C(C)(C)O)s2)c(C(C)C)n1 = 5.30 to 6.00
• CC(C)c1cc(C#N)cc(C2CC2)c1CC(=O)N=S(N)(=O)c1ccc(CN(C)C)cc1F (stereo not shown) [Example 32] = 4.52 to 5.30
• Cc1ccc(-c2cc(C(C)C)c(CC(=O)N=S(N)(=O)c3ncc(C(C)(C)O)s3)c(C(C)C)c2)cc1C (stereo not shown) = 6.00 to 6.70
• CC(C)c1cc2c(c(C(C)C)c1CC(=O)N=S(N)(=O)c1cnc(C(C)(C)O)s1)COC2 (stereo not shown) = 5.30 to 6.00

Give the reported pIC50 for this compound. CNS(=O)(=NC(=O)Cc1c(C(C)C)cc(F)cc1C(C)C)c1ncc(C(C)(C)O)s1 (stereo not shown)
4.52 to 5.30

Look up pIC50 of CC(C)c1cc(-c2ccc3c(c2)CCOC3)cc(C(C)C)c1CC(=O)N=S(=O)(NC(=O)OC(C)(C)C)c1cnc(C(C)(C)O)s1 (stereo not shown) and report it.
5.30 to 6.00

* * *

- Test system: IL-1β production in PMA-differentiated THP-1 cells
- procedure_text: IL-1β production in PMA-differentiated THP-1 cells stimulated with gramicidin (hTHP-1 assay containing 2% fetal bovine serum; Procedures 1-3)
- Assay type: cell-based, human
- particulars: Homo sapiens, THP-1, hTHP-1 assay containing 2% fetal bovine serum; class symbols; read-out: hTHP-1 IC50 (Average IC50 of compounds in hTHP-1 assay)
test_readout: IC50

The examples below pair each entry with its known result.
- CC(C)c1cc(F)cc(C2CC2)c1CC(=O)N=S(N)(=O)c1ccc(CN(C)C)cc1F (stereo not shown) [Example 31]: 1000 to 5000 nM
- CC(C)c1cc(C2(F)COC2)cc(C(C)C)c1CC(=O)N=S(N)(=O)c1ncc(C(C)(C)O)s1 (stereo not shown) [Example 94]: 1000 to 5000 nM
- CC(C)c1ccc(F)c(C(C)C)c1CC(=O)N=S(N)(=O)c1cnc(C(C)(C)O)s1 (stereo not shown) [Example 103]: 200 to 1000 nM

Please examine the following record next.
Please report IC50 with IL-1β production in PMA-differentiated THP-1 cells for item COCc1cc(C(C)C)c(CC(=O)N=S(N)(=O)c2sc(C(C)(C)O)nc2CO)c(C(C)C)c1 (stereo not shown) [Example 24] .
200 to 1000 nM

* * *

Recorded pIC50 values for a group of compounds are listed next.
- Tested on: IL-1β production in PMA-differentiated THP-1 cells
- procedure_text: IL-1β production in PMA-differentiated THP-1 cells stimulated with gramicidin (hTHP-1 assay containing 2% fetal bovine serum; Procedures 1-3)
- Type: cell-based, human
- particulars: Homo sapiens, THP-1, hTHP-1 assay containing 2% fetal bovine serum; class symbols; read-out: hTHP-1 IC50 (Average IC50 of compounds in hTHP-1 assay)
pIC50: −log10 of the molar value.

* COCc1cc(C(C)C)c(CC(=O)N=S(N)(=O)c2cc(C(C)(C)O)cs2)c(C(C)C)c1 (centres unmarked) [Example 105] | 6.70 to 7.40

Respond only with pIC50 recorded for CC(C)c1c(F)c(C#N)cc(C2CC2)c1CC(=O)N=S(N)(=O)c1sc(C(C)(C)O)nc1CO (centres unmarked) [Example 115]
6.00 to 6.70

Retrieve pIC50 measured for CC(C)c1nc(-c2cccc(C(F)(F)F)c2)c(F)c(C(C)C)c1CC(=O)N=S(N)(=O)c1cnc(C(C)(C)O)s1 (centres unmarked) [Example 100] and print it.
6.00 to 6.70

Annotate the compound CCCc1cc(F)cc(CCC)c1CC(=O)N=S(N)(=O)c1cnc(C(C)(C)O)s1 (centres unmarked) [Example 95] with its measured pIC50.
6.00 to 6.70

Please supply the value of reported pIC50 for the item CC(C)c1ccc2c(c1CC(=O)N=S(N)(=O)c1cnc(C(C)(C)O)s1)CCC2 (centres unmarked) [Example 135]
5.30 to 6.00

Input CC(C)c1ncc(F)c(C(C)C)c1CC(=O)N=S(N)(=O)c1cc(C(C)(C)O)cs1 (centres unmarked) [Example 145] , output reported pIC50.
6.00 to 6.70

Provide only the value of recorded pIC50 for CC(C)c1c(F)c(Cl)cc(C2CC2)c1CC(=O)N=S(N)(=O)c1cnc(C(C)(C)O)s1 (centres unmarked) [Example 104]
6.00 to 6.70

Determine from records and report pIC50 for CC(C)c1ccc(F)c(C(C)C)c1CC(=O)N=S(N)(=O)c1ncc(C(C)(C)O)s1 (centres unmarked) [Example 130]
5.30 to 6.00

* * *

- Test system: IL-1β production in PMA-differentiated THP-1 cells
- procedure_text: IL-1β production in PMA-differentiated THP-1 cells stimulated with gramicidin (hTHP-1 assay containing 2% fetal bovine serum; Procedures 1-3)
- Type: cell-based, human
- particulars: Homo sapiens, THP-1, hTHP-1 assay containing 2% fetal bovine serum; class symbols; read-out: hTHP-1 IC50 (Average IC50 of compounds in hTHP-1 assay)
pIC50: −log10 of the molar value.
test_readout: pIC50

Here's what some known entries look like.
• CC(C)c1cc(-c2ccc3c(c2)OC(F)(F)O3)cc(C(C)C)c1CC(=O)N=S(N)(=O)c1ncc(C(C)(C)O)s1 (stereo not shown) [Example 117] = 6.70 to 7.40
• COCc1cc(C(C)C)c(CC(=O)N=S(N)(=O)c2ncc(C(C)(C)O)s2)c(C(C)C)c1 (stereo not shown) [Example 111] = 6.70 to 7.40
• CC(C)c1ccc(F)c(C(C)C)c1CC(=O)N=S(N)(=O)c1ccc(CN(C)C)cn1 (single isomer, unassigned) [Example 200] = 5.30 to 6.00
• CC(C)c1cc2c(c(C(C)C)c1CC(=O)N=S(N)(=O)c1ccn(C(C)C)n1)COC2 (single isomer, unassigned) [Example 218] = 4.52 to 5.30
• CC(C)c1cc(-c2ccc3c(c2)OC(F)(F)O3)cc(C(C)C)c1CC(=O)N=S(N)(=O)c1cnc(C(C)(C)O)s1 (stereo not shown) [Example 118] = 6.00 to 6.70

Annotate the compound Cc1nc(C(C)(C)O)sc1S(N)(=O)=NC(=O)Cc1c(C(C)C)cc(OC(F)F)cc1C(C)C (stereo not shown) [Example 39] with its measured pIC50.
6.00 to 6.70

Return the recorded pIC50 value; entry: CC(C)c1cc(F)cc(C2CC2)c1CC(=O)N=S(N)(=O)c1sc(C(C)(C)O)cc1F (stereo not shown) [Example 18]
6.70 to 7.40

* * *

- Tested on: IL-1β production in PMA-differentiated THP-1 cells
- procedure_text: IL-1β production in PMA-differentiated THP-1 cells stimulated with gramicidin (hTHP-1 assay containing 2% fetal bovine serum; Procedures 1-3)
- Format: cell-based, human
- particulars: Homo sapiens, THP-1, hTHP-1 assay containing 2% fetal bovine serum; class symbols; read-out: hTHP-1 IC50 (Average IC50 of compounds in hTHP-1 assay)
- Description: The following protocol is suitable for testing the activity of the compounds disclosed herein. Procedure 1: IL-1β Production in PMA-Differentiated THP-1 Cells Stimulated with Gramicidin […] THP-1 cells were treated with PMA (Phorbol 12-myristate 13-acetate) (20 ng/ml) for 16-18 hours. […] The plates were incubated for 18 h at 4° C. and read using the preset HTRF program (donor emission at 620 nm, acceptor emission at 668 nm) of the SpectraMax i3x spectrophotometer (Molecular Devices, software SoftMax 6). […]
Below: a set of entries, each annotated with reported IC50.

Completed entries (count: 6):
- CC(C)c1cc(-n2cccn2)cc(C(C)C)c1CC(=O)N=S(N)(=O)c1cnc(C(C)(C)O)s1 (stereo not shown): 5000 to 30000 nM
- CC(C)c1ccc(F)c(C(C)C)c1CC(=O)N=S(N)(=O)c1ccc2c(cnn2C)c1 (single isomer, unassigned) [Example 198]: 5000 to 30000 nM
- CC(C)c1cc(-c2ccc3ccccc3c2)cc(C(C)C)c1CC(=O)N=S(N)(=O)c1ccc(CN(C)C)cc1 (stereo not shown): 200 to 1000 nM
- CC(C)c1ncc(F)c(C(C)C)c1CC(=O)N=S(N)(=O)c1ccc(CN(C)C)cc1 (stereo not shown): 5000 to 30000 nM
- Cc1ncc(C(C)C)c(CC(=O)N=S(N)(=O)c2sc(C(C)(C)O)cc2F)c1C(C)C (stereo not shown): 5000 to 30000 nM
- CC(C)c1ccc(F)c(C(C)C)c1CC(=O)N=S(N)(=O)c1ccc(CN(C)C)cn1 (stereo not shown) [Example 91]: 5000 to 30000 nM

Supply measured IC50 of CC(C)c1cc(F)cc(C2CC2)c1CC(=O)N=S(N)(=O)c1ccc(CN(C)C)cc1 (stereo not shown) [Example 15] in your reply.
1000 to 5000 nM

Give the reported IC50 for this compound. CC(C)c1cc2c(c(C(C)C)c1CC(=O)N=S(N)(=O)c1cnc(C(C)(C)O)s1)CCC2 (single isomer, unassigned) [Example 213]
1000 to 5000 nM

Supply reported IC50 belonging to this compound: CC(C)c1cc(C#N)c(F)c(C(C)C)c1CC(=O)N=S(N)(=O)c1ncc(C(C)(C)O)s1 (stereo not shown)
200 to 1000 nM

Hello, please tell me recorded IC50 for this one: CC(C)c1cc(C#N)cc(C2CC2)c1CC(=O)N=S(N)(=O)c1ccc(CN(C)C)cc1 (single isomer, unassigned) [Example 75]
1000 to 5000 nM

Please report the measured IC50 for CC(C)c1cc(C#N)cc(C(C)C)c1CC(=O)N=S(N)(=O)c1ncc(C(C)(C)O)s1 (stereo not shown)
200 to 1000 nM

Report IC50, nothing else, for this compound: CC(C)c1ccc(F)c(C(C)C)c1CC(=O)N=S(N)(=O)c1ccc(C(C)(C)O)s1 (stereo not shown)
200 to 1000 nM

// Input: CC(C)c1cc(F)cc(C(C)C)c1CC(=O)N=S(N)(=O)c1ncc(C(C)(C)O)s1 (stereo not shown) . Output its IC50 only.
200 to 1000 nM

Output measured IC50 for this item: CC(C)c1cc(C#N)cc(C2CC2)c1CC(=O)N=S(N)(=O)c1sc(C(C)(C)O)nc1CO (stereo not shown)
1000 to 5000 nM

Input CC(C)c1ccc(C#N)c(C(C)C)c1CC(=O)N=S(N)(=O)c1nc(C(C)(C)O)cs1 (stereo not shown) , output reported IC50.
200 to 1000 nM

Check the records and state IC50 for COc1ccc2cc(-c3cc(C(C)C)c(CC(=O)N=S(N)(=O)c4cnc(C(C)(C)O)s4)c(C(C)C)c3)ccc2c1 (stereo not shown)
5000 to 30000 nM
